These data points were gathered from patent US11814435B2.

- Assay System: T1, hBCMA (human BCMA) (Homo sapiens, UniProt Q02223)
- T1 sequence (Q02223 1-184): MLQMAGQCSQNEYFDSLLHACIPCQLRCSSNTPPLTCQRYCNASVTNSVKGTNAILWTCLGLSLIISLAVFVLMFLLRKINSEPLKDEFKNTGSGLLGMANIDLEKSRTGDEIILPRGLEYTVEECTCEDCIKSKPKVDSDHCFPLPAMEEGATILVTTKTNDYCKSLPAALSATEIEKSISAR
- Assay Info: Kinetics and affinity of hBCMA/human IgG interactions by SPR (Bio-Rad Proteon XPR36)
- Assay type: binding
- Assay Context: huBCMA, 37° C.
Metric: ka (1/Ms) huBCMA @ 37° C. (M⁻¹ s⁻¹)
# output: bare number, implied unit M⁻¹ s⁻¹

Examples from the recorded data:
Molecule	Reported Value
L3.PY/L1.PS/H2.DY: anti-BCMA antibody (antibody, V domains shown) VH: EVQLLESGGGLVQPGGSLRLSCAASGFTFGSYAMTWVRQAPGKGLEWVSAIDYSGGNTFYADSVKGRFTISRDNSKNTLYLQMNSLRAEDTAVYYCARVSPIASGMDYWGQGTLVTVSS VL: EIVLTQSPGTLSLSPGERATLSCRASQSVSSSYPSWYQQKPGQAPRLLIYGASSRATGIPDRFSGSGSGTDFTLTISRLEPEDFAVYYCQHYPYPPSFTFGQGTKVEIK	3.22e+06
L3.PY/L1.PS/H2.HA: anti-BCMA antibody (antibody, V domains shown) VH: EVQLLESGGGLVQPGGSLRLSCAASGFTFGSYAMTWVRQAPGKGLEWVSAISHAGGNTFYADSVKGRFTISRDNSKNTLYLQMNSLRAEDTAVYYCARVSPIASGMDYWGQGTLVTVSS VL: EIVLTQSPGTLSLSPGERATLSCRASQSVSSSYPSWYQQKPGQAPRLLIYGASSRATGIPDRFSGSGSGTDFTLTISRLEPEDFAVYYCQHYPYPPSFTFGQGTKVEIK	3.3e+06
L3.PY/L1.PS/H3.YA: anti-BCMA antibody (antibody, V domains shown) VH: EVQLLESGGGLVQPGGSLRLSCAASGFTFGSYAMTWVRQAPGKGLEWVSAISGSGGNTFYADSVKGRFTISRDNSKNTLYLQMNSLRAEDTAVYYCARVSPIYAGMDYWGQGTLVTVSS VL: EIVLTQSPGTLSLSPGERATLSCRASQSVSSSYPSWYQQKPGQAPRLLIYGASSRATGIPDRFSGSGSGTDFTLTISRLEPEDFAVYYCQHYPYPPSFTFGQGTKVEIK	3.07e+06
L3.PY/L1.FF/H2.QL: anti-BCMA antibody (antibody, V domains shown) VH: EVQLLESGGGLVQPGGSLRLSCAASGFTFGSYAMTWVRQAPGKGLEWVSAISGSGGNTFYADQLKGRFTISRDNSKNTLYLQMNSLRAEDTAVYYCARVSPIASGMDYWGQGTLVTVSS VL: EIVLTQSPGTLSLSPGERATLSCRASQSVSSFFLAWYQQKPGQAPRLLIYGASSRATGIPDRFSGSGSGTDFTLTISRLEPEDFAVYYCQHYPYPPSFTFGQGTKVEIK	3.48e+06
L3.PY/H2.LT: anti-BCMA antibody (antibody, V domains shown) VH: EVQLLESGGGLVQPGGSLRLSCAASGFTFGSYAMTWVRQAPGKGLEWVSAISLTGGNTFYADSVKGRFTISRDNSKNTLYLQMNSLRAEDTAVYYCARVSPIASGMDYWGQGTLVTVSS VL: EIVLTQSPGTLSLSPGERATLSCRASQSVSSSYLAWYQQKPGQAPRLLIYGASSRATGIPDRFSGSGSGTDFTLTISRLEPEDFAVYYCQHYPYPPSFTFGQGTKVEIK	2.4e+06
L3.PY/H3.AE: anti-BCMA antibody (antibody, V domains shown) VH: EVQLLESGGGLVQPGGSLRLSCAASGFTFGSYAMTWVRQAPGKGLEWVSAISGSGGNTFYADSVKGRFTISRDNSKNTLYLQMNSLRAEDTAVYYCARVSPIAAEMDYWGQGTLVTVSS VL: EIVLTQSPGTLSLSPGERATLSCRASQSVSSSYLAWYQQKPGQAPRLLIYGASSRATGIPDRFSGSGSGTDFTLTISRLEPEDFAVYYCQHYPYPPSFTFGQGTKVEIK	3.29e+06
L3.PY/L3.KY/H3.TAQ: anti-BCMA antibody (antibody, V domains shown) VH: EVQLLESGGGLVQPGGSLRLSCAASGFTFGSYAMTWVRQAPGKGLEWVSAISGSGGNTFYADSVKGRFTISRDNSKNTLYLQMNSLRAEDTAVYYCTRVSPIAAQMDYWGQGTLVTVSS VL: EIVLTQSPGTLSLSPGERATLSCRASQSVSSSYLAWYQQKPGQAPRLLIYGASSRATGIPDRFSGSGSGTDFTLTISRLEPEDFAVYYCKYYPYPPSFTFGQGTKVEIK	2.79e+06
L3.PY/L1.AH/H2.DY: anti-BCMA antibody (antibody, V domains shown) VH: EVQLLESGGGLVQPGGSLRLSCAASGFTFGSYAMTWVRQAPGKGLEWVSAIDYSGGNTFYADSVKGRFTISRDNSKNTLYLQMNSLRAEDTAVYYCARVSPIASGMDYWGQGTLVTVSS VL: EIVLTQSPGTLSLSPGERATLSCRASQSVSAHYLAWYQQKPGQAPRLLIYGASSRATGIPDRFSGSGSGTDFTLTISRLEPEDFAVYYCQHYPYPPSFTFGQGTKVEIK	3.05e+06
L3.PY/L1.FF/H2.QR: anti-BCMA antibody (antibody, V domains shown) VH: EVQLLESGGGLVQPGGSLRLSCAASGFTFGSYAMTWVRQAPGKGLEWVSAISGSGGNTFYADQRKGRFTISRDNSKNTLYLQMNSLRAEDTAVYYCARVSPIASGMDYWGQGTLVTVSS VL: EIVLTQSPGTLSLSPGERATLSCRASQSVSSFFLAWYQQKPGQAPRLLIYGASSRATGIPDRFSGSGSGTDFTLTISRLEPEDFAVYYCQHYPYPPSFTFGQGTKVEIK	3.47e+06

Could you now consider this next molecule?
Quick check: ka (1/Ms) huBCMA @ 37° C. of L3.PY/L1.AH/H3.AE: anti-BCMA antibody (antibody, V domains shown) VH: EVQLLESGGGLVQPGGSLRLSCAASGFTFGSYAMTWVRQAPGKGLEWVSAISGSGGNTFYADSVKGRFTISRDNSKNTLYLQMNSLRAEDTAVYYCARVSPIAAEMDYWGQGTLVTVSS VL: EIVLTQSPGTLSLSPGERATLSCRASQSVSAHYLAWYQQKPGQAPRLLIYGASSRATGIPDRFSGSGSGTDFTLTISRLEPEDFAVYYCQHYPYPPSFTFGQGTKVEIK ?
3.32e+06
